Molecular target: Pyruvate kinase PKM (Homo sapiens) (UniProt P14618)
Sequence (P14618 whole entry, looked up): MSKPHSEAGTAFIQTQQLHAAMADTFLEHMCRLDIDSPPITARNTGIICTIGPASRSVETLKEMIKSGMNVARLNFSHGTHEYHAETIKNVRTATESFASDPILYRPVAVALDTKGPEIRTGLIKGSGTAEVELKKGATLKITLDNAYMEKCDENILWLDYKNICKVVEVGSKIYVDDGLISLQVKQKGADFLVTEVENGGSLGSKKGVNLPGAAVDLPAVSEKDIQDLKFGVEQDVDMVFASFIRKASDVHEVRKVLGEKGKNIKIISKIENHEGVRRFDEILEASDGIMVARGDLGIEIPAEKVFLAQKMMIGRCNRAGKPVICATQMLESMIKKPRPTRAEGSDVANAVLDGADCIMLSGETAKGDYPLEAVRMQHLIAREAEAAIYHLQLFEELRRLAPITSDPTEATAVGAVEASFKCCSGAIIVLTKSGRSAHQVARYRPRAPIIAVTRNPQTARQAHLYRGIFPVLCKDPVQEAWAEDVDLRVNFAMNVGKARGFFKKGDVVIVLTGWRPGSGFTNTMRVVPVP
Test: qHTS Assay for Activators of Human Muscle Pyruvate Kinase (AID 954);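 note: 0% = uninhibited enzyme and -100% = no enzyme or full thiadiazolimine inhibition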
Settings: purified human muscle pyruvate kinase, luciferase-coupled luminescence, 1 h; series mostly up to 57.5 µM
The source made the active and inactive calls. Calls come from the whole dose curve; as a rule, active = well fitted curve in the direction sought with a large enough effect (not every such curve was filed as active); inconclusive = small, poorly fitted or top-dose-only effect, or effect the other way, or another doubt; inactive = no such curve, though single readings can be large or run the other way.
recorded-endpoint: outcome

Example cases with answers are listed next.
molecule: O=C(O)CCc1nc(-c2ccccc2)c(-c2ccccc2)o1
outcome: inactive

molecule: C[N+](C)(C)CCCCCC[N+](C)(C)C
outcome: inactive

molecule: O=c1c(-c2ccc(O)cc2)coc2cc(O)ccc12
outcome: inactive

molecule: NC(N)=Nc1nc(CSCC/C(N)=N/S(N)(=O)=O)cs1
outcome: inactive

molecule: CC(C)NCC(O)COc1cccc2[nH]ccc12 (configuration not stated)
outcome: inactive

molecule: CC(C)OC(=O)C(C)(C)Oc1ccc(C(=O)c2ccc(Cl)cc2)cc1
outcome: inactive

Turning now to a further molecule:
Q) Suppose we examine the molecule NCCS ; what outcome value has been reported?
A) inactive

* * *

Assay: qHTS of pediatric cancer cell lines to identify multiple opportunities for drug repurposing: Primary screen for LAN-5 cells (AID 1347100)
Settings: LAN-5 neuroblastoma viability, CellTiter-Glo luminescence, 48 h; series mostly up to 46 µM
Results filed as inconclusive are left out. Activity calls are given as the source filed them. The call rests on the fitted dose curve; in most records, active means well fitted cell-killing curve with a large enough effect; inconclusive means small, poorly fitted or top-dose-only effect; inactive means no such curve, though single readings can be large or run the other way.
Hi there, use one of these labels in your reply, thanks! active, inactive

Q) Would you mind telling me which call this test gave CC1(C)CCC[C@@]2(C)[C@@H]1CC[C@@]1(C)OC(=O)C[C@H]21 ?
A) inactive

Q) Query C[C@@H](O)[C@H]1C(=O)N2C(C(=O)O)=C(S[C@@H]3CN[C@H](C(=O)N(C)C)C3)[C@H](C)[C@H]12 next
A) inactive

Q) Query Cc1c[nH]c(C=C2C(=O)Nc3ccccc32)c1CCC(=O)O next
A) active

Q) Query O=C(Nc1ccccc1-c1cn2c(CN3CCNCC3)csc2n1)c1cnc2ccccc2n1 next
A) active

Q) Query CCn1cc(C(=O)O)c(=O)c2ccc(C)nc21 next
A) inactive

* * *

System: Zika virus NS2B-NS3 protease
Assay: Primary screen GU AMC qHTS for Zika virus inhibitors (AID 1347154); note: nearly all actives have a fitted effect of over 70% in size
Conditions: Zika NS2B-NS3 unlinked protease, AMC fluorogenic substrate; series mostly up to 54.1 µM
Inconclusive results are not listed. Activity calls are given as the source filed them. Calls come from the whole dose curve; as a rule, active = well fitted inhibition curve with a large enough effect; inconclusive = small, poorly fitted or top-dose-only effect; inactive = flat fitted curve, though single readings scatter.
Hi there, use one of these labels in your reply, thanks! class 1 for active, class 0 for inactive

Here's what some known entries look like.
compound: O=C(N[C@@H](c1ccccc1)[C@@H]1CCCCN1)c1cccc(C(F)(F)F)c1Cl
measurement-target: Zika virus NS2B-NS3 protease
category-label: class 0

compound: CO[C@H]1C[C@@H]2CC[C@@H](C)[C@@](O)(O2)C(=O)C(=O)N2CCCC[C@@H]2C(=O)O[C@H]([C@H](C)C[C@@H]2CC[C@H](OCCO)[C@H](OC)C2)CC(=O)[C@H](C)C=C(C)[C@@H](O)[C@@H](OC)C(=O)[C@H](C)C[C@H](C)C=CC=CC=C1C
measurement-target: Zika virus NS2B-NS3 protease
category-label: class 0

compound: COCCCCC(=NOCCN)c1ccc(C(F)(F)F)cc1
measurement-target: Zika virus NS2B-NS3 protease
category-label: class 0

compound: CC[C@]1(O)C[C@@H]2CN(CCc3c([nH]c4ccccc34)[C@@](C(=O)OC)(c3cc4c(cc3OC)N(C=O)[C@@H]3C45CCN4CC=C[C@](CC)([C@H]45)[C@@H](OC(C)=O)[C@]3(O)C(=O)OC)C2)C1 (stereo partly specified)
measurement-target: Zika virus NS2B-NS3 protease
category-label: class 0

compound: C[N+](C)(C)CC(=O)O
measurement-target: Zika virus NS2B-NS3 protease
category-label: class 0

compound: Cc1ccn(-c2ccc(-c3ncco3)cc2)c(=O)c1-c1ccc2nc(N)ncc2c1
measurement-target: Zika virus NS2B-NS3 protease
category-label: class 1

compound: CCNc1cc(NC2CCC(O)CC2)nc(Nc2ccc3c(ccn3Cc3ccccc3)c2)n1 (stereo unspecified)
measurement-target: Zika virus NS2B-NS3 protease
category-label: class 0

compound: CO[C@H]1C(=O)[C@]2(C)[C@@H](OC)C[C@H]3OC[C@@]3(OC(C)=O)[C@H]2[C@H](OC(=O)c2ccccc2)[C@]2(O)C[C@H](OC(=O)[C@H](O)[C@@H](NC(=O)OC(C)(C)C)c3ccccc3)C(C)=C1C2(C)C
measurement-target: Zika virus NS2B-NS3 protease
category-label: class 0

Q) Would you mind telling me which call this test gave CC1(C)CCC2=C(O1)c1ccccc1C(=O)C2=O ?
A) class 0

Q) Query CC(C)C(C)C=CC(C)C1CCC2C3=CC=C4CC(O)CCC4(C)C3CCC21C (stereo unspecified) next
A) class 0

Q) Query N#C[C@H]1C[C@H]2C[C@@H]2N1C(=O)[C@@H](N)C12CC3CC(CC(O)(C3)C1)C2 next
A) class 0

Q) Query CC(=Cc1ccccc1)C=C1SC(=S)N(CC(=O)O)C1=O next
A) class 0

Q) Query O=C1C(Cl)=C(NCCN2CCOCC2)C(=O)c2ncccc21 next
A) class 0

Q) Query CO[C@H]1C[C@@H]2CC[C@@H](C)[C@@](O)(O2)C(=O)C(=O)N2CCCC[C@@H]2C(=O)O[C@H]([C@@H](C)C[C@@H]2CC[C@H](O)[C@H](OC)C2)CC(=O)[C@H](C)C=C(C)[C@@H](O)[C@@H](OC)C(=O)[C@H](C)C[C@H](C)C=CC=CC=C1C next
A) class 0

Q) Query Cn1cc(C=C2C(=O)Nc3cccnc32)c2ccccc21 next
A) class 0

Q) Query CC[C@@]1(O)C[C@H](O[C@H]2C[C@H](N(C)C)[C@H](O[C@H]3C[C@H](O)[C@H](O[C@H]4CCC(=O)[C@H](C)O4)[C@H](C)O3)[C@H](C)O2)c2c(cc3c(c2O)C(=O)c2c(O)cccc2C3=O)[C@@H]1C(=O)OC next
A) class 0
